src = patent US20120178682A1

- System under test: D-VEGF
- Procedure text: SPR affinity measurements of GB1 peptidic compounds on immobilized D-VEGF
- Assay type: binding
- Cond: Table 2; GB1-E01 double mutants; target D-VEGF
pKd: −log10 of the molar value.
Experimental readout: pKd

| Molecule | Measured result |
| --- | --- |
| E01-D39F/V31A: E01 double mutant D39F/V31A (protein) MKIEEHHHHHHHHHHGGSTYKLILNGKTLKGETTTEAVDVYDAFDVFFAYAASNFSFFDDWTYDDATKTFTVTEGGSDK | 8.52 |
| E01-D39F/S38G: E01 double mutant D39F/S38G (protein) MKIEEHHHHHHHHHHGGSTYKLILNGKTLKGETTTEAVDVYDAFDVFFVYAASNFGFFDDWTYDDATKTFTVTEGGSDK | 8.55 |
| E01-D39F/D27E: E01 double mutant D39F/D27E (protein) MKIEEHHHHHHHHHHGGSTYKLILNGKTLKGETTTEAVDVYDAFEVFFVYAASNFSFFDDWTYDDATKTFTVTEGGSDK | 8.51 |
| E01-D39F/F40I: E01 double mutant D39F/F40I (protein) MKIEEHHHHHHHHHHGGSTYKLILNGKTLKGETTTEAVDVYDAFDVFFVYAASNFSFIDDWTYDDATKTFTVTEGGSDK | 8.64 |
